Target: RELB subunit;p50 subunit (Homo sapiens;Homo sapiens, UniProt Q01201;P19838 120-401;7-356)
Sequence (Q01201 120-401, chain 1 of 2): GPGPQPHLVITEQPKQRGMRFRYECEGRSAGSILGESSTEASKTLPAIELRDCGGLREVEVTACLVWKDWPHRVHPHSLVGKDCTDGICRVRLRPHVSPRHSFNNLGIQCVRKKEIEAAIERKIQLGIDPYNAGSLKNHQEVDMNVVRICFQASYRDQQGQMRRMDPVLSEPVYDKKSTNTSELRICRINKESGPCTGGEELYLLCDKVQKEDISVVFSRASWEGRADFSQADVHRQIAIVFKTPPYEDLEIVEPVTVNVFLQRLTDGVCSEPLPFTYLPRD
Sequence (P19838 7-356, chain 2 of 2): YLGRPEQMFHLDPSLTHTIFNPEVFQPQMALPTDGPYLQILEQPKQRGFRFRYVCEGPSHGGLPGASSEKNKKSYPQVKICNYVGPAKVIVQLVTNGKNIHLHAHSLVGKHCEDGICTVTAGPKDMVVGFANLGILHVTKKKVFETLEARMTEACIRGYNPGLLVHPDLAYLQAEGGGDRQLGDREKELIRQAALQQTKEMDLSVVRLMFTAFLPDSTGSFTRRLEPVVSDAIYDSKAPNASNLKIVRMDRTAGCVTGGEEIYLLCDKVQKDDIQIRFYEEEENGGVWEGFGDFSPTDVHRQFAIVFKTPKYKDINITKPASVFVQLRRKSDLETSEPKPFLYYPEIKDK
Assay: protein binding microarray; high values mean tight binding
Details: dsDNA, one strand shown
Observed property: binding signal

GAGTGCTTCCC | -0.589 z-score
CAGTTACTCCT | -0.976 z-score
GAGTGACTCCC | -0.601 z-score
AAGGGGGCCCC | 0.694 z-score
CGGGTATTCCT | 0.353 z-score
GAAGTCTTCCC | -0.349 z-score
AGGATTGTCCT | -0.86 z-score
AAGTGAACCCT | -0.923 z-score
GGGGAGGTCCT | 0.375 z-score
GGAGATTCCCC | 2.06 z-score
AAGAAATTCCC | 1.27 z-score
CGAGGGCCCCC | 0.199 z-score
GGGATTCTCCC | 2.01 z-score
CAAGTATTCCT | -0.975 z-score
AGATTCGCCCC | 0.292 z-score
AGATAGATCCT | -1.03 z-score
CAAGTTCCCCT | 2.27 z-score
CGGATTGCCCC | 0.497 z-score
GGAAAGTTCCC | 0.762 z-score
AGAGGCGTCCC | 0.139 z-score
CGGTATGTCCT | -0.895 z-score
AAGGGCACCCC | -0.379 z-score
AGAGTATTCCC | 0.0188 z-score
AAAGGGATCCC | -0.184 z-score
CGGAAATTCCC | 1.19 z-score
GGGTGCTCCCT | -0.21 z-score
CGGGACTCCCC | 1.59 z-score
AAAAATTCCCC | 2.96 z-score
CGAGATTTCCC | 0.804 z-score
GGGGTCTCCCT | 0.85 z-score
CAATTCCCCCC | 2.19 z-score
AGATGGTTCCT | -0.879 z-score
GAGAGCGCCCT | -1 z-score
CAGAGACCCCC | 0.373 z-score
CAGGTGCTCCT | -0.45 z-score
CAAAAACCCCT | 2.09 z-score
AGGAAACTCCT | -0.699 z-score
CAGAAGATCCT | -1.3 z-score
CAGGACACCCT | -0.795 z-score
AAATGCCCCCC | 1.4 z-score
CAAGAGATCCT | -0.959 z-score
CAATAACTCCC | 0.426 z-score
CGATGCTCCCC | 0.111 z-score
GGGGTGTTCCT | 0.00295 z-score
GAAGGCTCCCT | -0.594 z-score
GGGATAGTCCC | 1.87 z-score
CGGTTGCTCCT | -1.09 z-score
AAGAGTACCCT | 0.66 z-score
CGAGAAATCCC | 0.773 z-score
GAGGAGCTCCT | -1.05 z-score
AAATGTGCCCC | 0.0211 z-score
AAATAGATCCC | -0.403 z-score
GAGGAATCCCT | 0.403 z-score
AAGGATATCCT | -0.945 z-score
AAATTTGCCCT | -0.452 z-score
AGAGATTTCCT | -0.762 z-score
CAGTGTTTCCT | -0.831 z-score
AGGTTTTCCCC | 2.01 z-score
AAGAATTTCCT | -0.672 z-score
CGAATATTCCC | 0.405 z-score
CAAGATCTCCT | -1.04 z-score
AGAGGTTCCCC | 1.41 z-score
AGGATAATCCC | -0.113 z-score
AAGTAGTCCCC | 1.36 z-score
CAAAGAACCCT | -0.682 z-score
GAAAACGTCCT | -0.872 z-score
AGGATGTTCCC | -0.426 z-score
CAGAGCTCCCC | 0.161 z-score
GAGTATCCCCT | 1.28 z-score
GAAGAGTTCCC | 0.132 z-score
AAGTTAGTCCT | -1.03 z-score
AGGGGACTCCC | 1.82 z-score
GAAAACATCCC | -0.24 z-score
CAATGTCTCCC | -0.294 z-score
CAATTGCTCCC | -0.487 z-score
GAGTTCTCCCC | 1.23 z-score
AAGTAAGTCCC | 1.1 z-score
AAAATAACCCC | 0.895 z-score
GAAGACCTCCT | -1.23 z-score
GGAATGATCCC | -0.763 z-score
AAGTGGGCCCT | -0.762 z-score
GGATGTCCCCC | 1.27 z-score
GAGGTAGTCCC | 0.57 z-score
CAGGATATCCC | -0.231 z-score
